# Test: Liver microsome stability
# Format: in vitro ADME, dog
# Stated conditions: amount of substrate remaining; compound 1 μM, 30 minutes, 37° C., NADPH
Cut-off 80% on Dog (%): below means y, at or above means n.

| Compound | Classification |
| --- | --- |
| N#CC(C#N)=NNc1ccc(NC(=O)c2cccs2)nc1 [Compound 30] | n |
| Cc1cnc(C(=O)Nc2ccc(NN=C(C#N)C#N)c(F)c2)cn1 [Compound 3] | y |
| N#CC(C#N)=NNc1ccc(NC(=O)c2cccc(C(F)(F)F)c2)nc1 [Compound 26] | y |
| N#CC(C#N)=NNc1ccc(Oc2ccccc2)nc1 [Compound 68] | n |
| Cc1cncc(NC(=O)c2ccc(NN=C(C#N)C#N)cc2)n1 [Compound 46] | n |
| Cc1ccc(NC(=O)c2ccc(NN=C(C#N)C#N)cn2)cn1 [Compound 38] | n |
| N#CC(C#N)=NNc1ccc(NC(=O)c2ccc(C(F)(F)F)cc2)nc1 [Compound 27] | y |
| Cc1cnc(C(=O)Nc2ccc(NN=C(C#N)C#N)c(C)c2)cn1 [Compound 6] | n |

====

Quick list: Cell viability (% @10 μM) per entry.
# System: Tau-BiFC cells
# Test: Cell viability (cytotoxicity) in tau-BiFC cells, count of stained nuclei
# Type: cell-based
# Stated conditions: compound 10 μM; Forskolin-only group = 100% cell viability
Recorded endpoint: Cell viability (% @10 μM) (%)

| Compound structure string | Tested on | Recorded endpoint | Measurement units | Quantitative readout |
| --- | --- | --- | --- | --- |
| Cc1cnc(C(=O)Nc2ccc(NN=C(C#N)C#N)c(Cl)c2)cn1 | Tau-BiFC cells | Cell viability (% @10 μM) | % | 61.2 |
| Cc1cncc(NC(=O)c2ccc(NN=C(C#N)C#N)cc2C)n1 | Tau-BiFC cells | Cell viability (% @10 μM) | % | 116 |
| COc1ccc(CCOc2ccc(NN=C(C#N)C#N)cc2C(F)(F)F)cc1 | Tau-BiFC cells | Cell viability (% @10 μM) | % | 38.1 |
| N#CC(C#N)=NNc1ccc(Oc2cnccn2)cc1 | Tau-BiFC cells | Cell viability (% @10 μM) | % | 111.4 |
| N#CC(C#N)=NNc1ccc(Oc2cccnn2)cc1 | Tau-BiFC cells | Cell viability (% @10 μM) | % | 116.8 |

====

# Tested on: tau protein (Homo sapiens, UniProt P10636)
# Construct: fused on or other part: Split fluorescent-protein halves for BiFC are fused to tau; In the published tau-BiFC line these are Venus VN173 and VC155
# Sequence (P10636 2-441 isoform P10636-8 limits assumed): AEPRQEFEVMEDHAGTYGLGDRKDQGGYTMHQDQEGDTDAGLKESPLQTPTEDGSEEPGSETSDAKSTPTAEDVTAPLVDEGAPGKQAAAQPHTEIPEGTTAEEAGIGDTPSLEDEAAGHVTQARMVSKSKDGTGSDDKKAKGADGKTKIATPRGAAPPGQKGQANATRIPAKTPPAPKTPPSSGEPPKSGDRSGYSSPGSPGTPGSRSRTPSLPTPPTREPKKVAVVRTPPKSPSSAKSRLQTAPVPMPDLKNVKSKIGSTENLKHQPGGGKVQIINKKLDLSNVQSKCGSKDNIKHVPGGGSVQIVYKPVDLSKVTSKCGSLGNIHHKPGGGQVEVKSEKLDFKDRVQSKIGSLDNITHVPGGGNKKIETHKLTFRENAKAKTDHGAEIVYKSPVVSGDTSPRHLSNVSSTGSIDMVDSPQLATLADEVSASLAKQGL
# Test: Tau-BiFC cell model: inhibition of tau protein aggregation
# Stated conditions: Tau BiFC in cells; with Forskolin 30 μM, 48 hours
# Procedure: In order to select novel tau protein aggregation-inhibiting substances, tau-BiFC cell model, in which formation of tau oligomers in living cells is easily observed, was used. Tau-BiFC cells were aliquoted into a 384-well plate. […] After 48 hours, nuclei in the cells were stained using Hoechst (at a treatment concentration of 2 μg/mL), and BiFC fluorescence intensity was automatically measured using Operetta (PerkinElmer) to count stained nuclei in each well out of the entire well plate. […]
pIC50: −log10 of the molar value.
Listed below: pIC50 values for each entry.

| Compound structure string | pIC50 |
| --- | --- |
| Cc1cc(NN=C(C#N)C#N)ccc1Oc1cncnc1 | 6.26 |
| N#CC(C#N)=NNc1ccc(OCc2cccnn2)cc1 | 5.92 |
| Cc1cnc(C(=O)Nc2ccc(NN=C(C#N)C#N)c(F)c2)cn1 | 7.52 |
| N#CC(C#N)=NNc1ccc(Oc2ccc(C(F)(F)F)cn2)cc1 | 5.89 |
| Cc1cc(F)cc(C(=O)Nc2ccc(NN=C(C#N)C#N)cn2)c1 | 6.57 |

====

# Tested on: tau protein (Homo sapiens, UniProt P10636)
# Construct: fused on or other part: Split fluorescent-protein halves for BiFC are fused to tau; In the published tau-BiFC line these are Venus VN173 and VC155
# Test: Tau-BiFC cell model: inhibition of tau protein aggregation
# Assay type: cell-based
# Stated conditions: 48 h; compounds marked *: measured at 3 μM; Forskolin-only group = 100% tau protein-aggregated state; read-out: Response
Reported remaining activity at 3 µM by item:
Recorded endpoint: remaining activity at 3 µM (%)

| Compound | Quantitative readout |
| --- | --- |
| Cc1cc(NN=C(C#N)C#N)ccc1OCc1ccccc1 | -25 |
| CC(Oc1ccc(NN=C(C#N)C#N)cc1)c1cccnc1 (stereo not shown) | 18 |
| COc1cc(NN=C(C#N)C#N)ccc1OCc1ncccn1 | -17 |
| COc1cc(NN=C(C#N)C#N)ccc1OCc1ccc(C(F)(F)F)cc1 | -43 |
| Cc1cc(NN=C(C#N)C#N)ccc1OCc1cccnc1 | -49 |
| Cc1cc(NN=C(C#N)C#N)ccc1OCc1cscn1 | -37 |
| COc1cc(NN=C(C#N)C#N)ccc1OCc1ccccc1 | -43 |
| COc1cc(NN=C(C#N)C#N)ccc1OCc1nc2ccccc2o1 | -43 |
| N#CC(C#N)=NNc1ccc(OCc2cn[nH]c2)cc1 | 31 |
| COc1cc(NN=C(C#N)C#N)ccc1OCc1nc2ccccc2[nH]1 | 91 |
| COc1cc(NN=C(C#N)C#N)ccc1OCc1cnccn1 | -40 |
| Cc1cnc(COc2ccc(NN=C(C#N)C#N)cc2C)cn1 | -19 |
| Cc1cc(NN=C(C#N)C#N)ccc1OCc1cc[nH]n1 | -32 |
| COc1cc(NN=C(C#N)C#N)ccc1OCc1cc[nH]n1 | -17 |
| Cc1cc(NN=C(C#N)C#N)ccc1OCc1nc2ccccc2s1 | 8 |
| COc1cc(NN=C(C#N)C#N)ccc1OCc1cc2ccccc2s1 | -33 |
| Cc1cc(NN=C(C#N)C#N)ccc1OCc1nc2ccccc2[nH]1 | -35 |
| CC(Oc1ccc(NN=C(C#N)C#N)cc1)c1ccc(C(F)(F)F)cc1 (stereo not shown) | 39 |
| COc1cc(NN=C(C#N)C#N)ccc1OCc1nc2ccccc2s1 | -40 |
| COc1cc(NN=C(C#N)C#N)ccc1OCc1cscn1 | -38 |
| Cc1cc(NN=C(C#N)C#N)ccc1OCc1cnccn1 | -20 |
| Cc1cc(NN=C(C#N)C#N)ccc1OCc1cc2ccccc2s1 | 11 |

====

# Tested on: CYP1A2 (Homo sapiens, UniProt P05177)
# Construct: human liver microsomes (0.25 mg/mL); from tissue; host or cells: human liver microsomes
# Sequence (P05177 whole entry): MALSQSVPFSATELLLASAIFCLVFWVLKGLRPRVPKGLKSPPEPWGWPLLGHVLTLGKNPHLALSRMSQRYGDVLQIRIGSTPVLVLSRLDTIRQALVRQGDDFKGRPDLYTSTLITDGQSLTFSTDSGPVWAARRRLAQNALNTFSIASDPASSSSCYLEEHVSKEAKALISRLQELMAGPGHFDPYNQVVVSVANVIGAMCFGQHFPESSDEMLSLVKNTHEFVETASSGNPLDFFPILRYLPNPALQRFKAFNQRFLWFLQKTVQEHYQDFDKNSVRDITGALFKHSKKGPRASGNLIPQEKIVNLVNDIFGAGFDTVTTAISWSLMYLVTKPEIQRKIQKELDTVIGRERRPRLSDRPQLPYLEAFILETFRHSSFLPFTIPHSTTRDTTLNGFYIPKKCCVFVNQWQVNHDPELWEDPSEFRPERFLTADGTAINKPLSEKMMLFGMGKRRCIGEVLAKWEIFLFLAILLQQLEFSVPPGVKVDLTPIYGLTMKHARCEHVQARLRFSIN
# Test: Inhibitory effect on CYP coenzyme activity, human liver microsomes
# Format: in vitro ADME
# Stated conditions: compound 10 μM; human liver microsomes 0.25 mg/mL; substrate phenacetin; 15 minutes
CYP1A2 under 80 gets condition met, anything at or over 80 gets condition not met.

| Molecule | Classification |
| --- | --- |
| N#CC(C#N)=NNc1ccc(NC(=O)c2ccoc2)nc1 [Compound 110] | condition not met |
| Cc1cc(NN=C(C#N)C#N)ccc1OCc1nc2ccccc2o1 [Compound 156] | condition not met |
| Cc1cccc(C(=O)Nc2ccc(NN=C(C#N)C#N)cn2)c1F [Compound 20] | condition met |
| Cc1ccc(C(=O)Nc2ccc(NN=C(C#N)C#N)cn2)cc1 [Compound 23] | condition not met |
| Cc1cc(NN=C(C#N)C#N)ccc1OCc1ncccn1 [Compound 143] | condition not met |
| COc1cc(NN=C(C#N)C#N)ccc1OCc1cnccn1 [Compound 159] | condition met |
| N#CC(C#N)=NNc1ccc(OCc2cccnc2)cc1 [Compound 124] | condition met |
| Cc1cncc(NC(=O)c2ccc(NN=C(C#N)C#N)cc2)n1 [Compound 46] | condition not met |
| Cc1cc(NN=C(C#N)C#N)ccc1OCc1cnccn1 [Compound 144] | condition met |

====

# Tested on: tau protein (Homo sapiens, UniProt P10636)
# Construct: fused on or other part: Split fluorescent-protein halves for BiFC are fused to tau; In the published tau-BiFC line these are Venus VN173 and VC155
# Test: Tau-BiFC cell model: inhibition of tau protein aggregation
# Assay type: cell-based
# Stated conditions: 48 h; compound 10 μM; BiFC fluorescence, Forskolin-only group = 100% tau protein-aggregated state; read-out: Response (% @10 μM)

| Compound | remaining activity at 10 µM, % |
| --- | --- |
| COc1cc(NN=C(C#N)C#N)ccc1C(=O)Nc1cncc(C)c1 [Compound 107] | 0 |
| N#CC(C#N)=NNc1ccc(OCc2cccnc2)cc1 [Compound 124] | 0 |
| N#CC(C#N)=NNc1ccc(OCc2ccccc2)cc1 [Compound 117] | 16.6 |
| Cc1ccc(NC(=O)c2ccc(NN=C(C#N)C#N)cc2)cn1 [Compound 47] | 0 |
| Cc1cncc(NC(=O)c2ccc(NN=C(C#N)C#N)cc2C)n1 [Compound 54] | 8.3 |
